meta.source: patent US7452913B2

# procedure-text: Estimation of the solubility of a polymorph in various solvents
# Format: physicochemical
# applied-conditions: organic solvent or mixture, thermodynamic from solid; ethanol, 23° C.; read-out: Solubility
parameter: solubility

Query: // lookup solubility for Cc1[nH]c(/C=C2\C(=O)Nc3ccc(F)cc32)c(C)c1C(=O)NCCN1CCCC1 [polymorph I]
Response: 170 to 190 µg/mL

---

# procedure-text: Estimation of the solubility of a polymorph in various solvents
# Type: physicochemical
# applied-conditions: organic solvent or mixture, thermodynamic from solid; DMF, 23° C.; read-out: Solubility
parameter: solubility

Query: // lookup solubility for Cc1[nH]c(/C=C2\C(=O)Nc3ccc(F)cc32)c(C)c1C(=O)NCCN1CCCC1 [polymorph I]
Response: > 1500 µg/mL

---

# procedure-text: Estimation of the solubility of a polymorph in various solvents
# Type: physicochemical
# applied-conditions: dioxane and THF (one solvent per vial), organic solvent or mixture, thermodynamic from solid; methanol, ethanol, dioxane and THF; polymorph I, room temperature; read-out: Solubility (Group II solvents)
parameter: solubility

Query: // lookup solubility for Cc1[nH]c(/C=C2\C(=O)Nc3ccc(F)cc32)c(C)c1C(=O)NCCN1CCCC1
Response: 100 to 400 µg/mL

---

# procedure-text: Estimation of the solubility of a polymorph in various solvents
# Format: physicochemical
# applied-conditions: organic solvent or mixture, thermodynamic from solid; DMSO, 23° C.; read-out: Solubility
parameter: solubility

Query: // lookup solubility for Cc1[nH]c(/C=C2\C(=O)Nc3ccc(F)cc32)c(C)c1C(=O)NCCN1CCCC1 [polymorph I]
Response: 1500 to 3000 µg/mL
